test: Permeability in RRCK cells; assay type: ADME, cell-based, Canis lupus familiaris, MDCKII-LE; details: dog, MDCK; read-out: permeability
METRIC_NAME: Papp (×10⁻⁶ cm/s)
Report the value in ×10⁻⁶ cm/s with no unit label.

Recorded Papp of "C[C@H](c1ccc(F)cc1)N(Cc1cccc(C(=O)O)c1)C(=O)c1cnc2ccccc2c1" , please. 6.8

----------
biological target: Transient receptor potential cation channel subfamily M member 8 (Homo sapiens); assay: Antagonist activity against human recombinant TRPM8 expressed in CHO T-rex cells assessed as inhibition of WS12-induced calcium response pre-incubated for 20 mins before WS12 addition; assay type: cell-based
Sequence (Q7Z2W7 whole entry): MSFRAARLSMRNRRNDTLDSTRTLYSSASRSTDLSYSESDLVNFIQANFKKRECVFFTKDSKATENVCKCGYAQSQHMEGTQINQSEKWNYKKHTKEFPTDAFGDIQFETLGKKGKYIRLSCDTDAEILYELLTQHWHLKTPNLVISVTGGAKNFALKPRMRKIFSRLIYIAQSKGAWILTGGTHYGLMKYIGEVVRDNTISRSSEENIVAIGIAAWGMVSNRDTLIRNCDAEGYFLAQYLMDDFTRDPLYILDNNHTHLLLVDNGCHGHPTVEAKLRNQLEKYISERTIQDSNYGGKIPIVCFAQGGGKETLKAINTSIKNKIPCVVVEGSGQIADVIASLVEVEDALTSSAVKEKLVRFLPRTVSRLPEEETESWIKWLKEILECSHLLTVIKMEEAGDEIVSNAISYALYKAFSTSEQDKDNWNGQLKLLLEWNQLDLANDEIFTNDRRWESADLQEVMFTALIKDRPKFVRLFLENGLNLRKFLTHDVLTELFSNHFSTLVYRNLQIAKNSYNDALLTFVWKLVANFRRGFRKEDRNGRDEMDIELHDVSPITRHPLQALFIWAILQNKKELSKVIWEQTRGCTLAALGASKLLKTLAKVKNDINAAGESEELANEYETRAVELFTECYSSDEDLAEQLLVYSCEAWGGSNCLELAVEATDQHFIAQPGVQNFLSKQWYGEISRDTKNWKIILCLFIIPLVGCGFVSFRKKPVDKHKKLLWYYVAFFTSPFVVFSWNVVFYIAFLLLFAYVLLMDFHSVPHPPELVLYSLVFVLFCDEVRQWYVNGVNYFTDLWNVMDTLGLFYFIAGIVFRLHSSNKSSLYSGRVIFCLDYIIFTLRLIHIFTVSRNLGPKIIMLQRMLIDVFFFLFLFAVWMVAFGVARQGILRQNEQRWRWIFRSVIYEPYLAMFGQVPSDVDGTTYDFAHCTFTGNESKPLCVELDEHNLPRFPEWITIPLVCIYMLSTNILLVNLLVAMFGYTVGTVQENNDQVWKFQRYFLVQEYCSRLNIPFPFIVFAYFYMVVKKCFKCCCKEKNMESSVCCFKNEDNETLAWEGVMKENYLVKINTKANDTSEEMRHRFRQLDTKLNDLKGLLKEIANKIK
IC50 values by entry

Worked examples, 2 compounds total:
{"columns": ["COMPOUND", "IC50"],
 "data": [
  ["O=C(O)c1cccc(CN(C(=O)c2cnc3ccccc3c2)[C@H](CO)c2ccccc2)c1", "> 6860 nM"],
  ["C[C@H](c1ccc(F)cc1)N(Cc1cccc(-c2nn[nH]n2)c1)C(=O)c1cnc2ccccc2c1", "1610 nM"]
]}

If you can, please state the reported IC50 value of "C[C@H](c1ccc(F)cc1)N(Cc1cc(C(=O)O)ccc1F)C(=O)c1cnc2ccccc2c1" . 446 nM

Item "C[C@H](c1ccc(F)cc1F)N(Cc1cccc(C(=O)O)c1)C(=O)c1cnc2ccccc2c1" has what recorded IC50? 288 nM

Fill in the blank: the reported IC50 of "O=C(O)c1cccc(CN(Cc2ccc(F)cc2)C(=O)c2cnc3ccccc3c2)c1" is ____. > 9360 nM

Which measured IC50 value corresponds to "C[C@H](c1ccc(F)cc1)N(Cc1cccc(C(=O)O)c1)C(=O)c1cc2ccccc2nn1" ? 340 nM

Tell me the measured IC50 of CC(c1ccc(F)cc1)N(Cc1cccc(C(=O)O)c1)C(=O)C1Cc2ccccc2C1 (racemic) , please. > 5000 nM

Dear colleague, I am looking for the recorded IC50 of the following compound: "CC[C@H](c1ccc(C)o1)N(Cc1cccc(C(=O)O)c1)C(=O)c1cnc2ccccc2c1" 328 nM

Record request: IC50 value, item "Cc1ccc(CN(C(=O)c2cnc3ccccc3c2)[C@H](C)c2ccc(F)cc2)cc1C(=O)O" > 7820 nM

----------
Overview of reported log10 microsomal CLint across a group of compounds:
tested on: Liver microsome; assay: Intrinsic clearance in rat liver microsomes; format: ADME
Lab note - microsomal CLint converted to log10 from values in µL/min/mg.

{"columns": ["STRUCTURE_AS_SMILES", "log10 microsomal CLint"],
 "data": [
  ["C[C@H](c1ccc(F)cc1)N(Cc1cccc(C(=O)O)c1)C(=O)c1cc2ccccc2cn1", 2.22],
  ["C[C@H](c1ccc(F)cc1)N(Cc1cccc(C(=O)O)c1)C(=O)c1cnc2ccccc2c1", 1.23],
  ["C[C@H](c1ccc(F)cc1)N(Cc1cccc(C(=O)O)c1)C(=O)c1cn2ccccc2n1", 2.05],
  ["C[C@H](c1ccc(F)cc1)N(Cc1cccc(C(=O)O)c1)C(=O)c1cc2ccccc2nn1", 1.88],
  ["C[C@H](c1cccc(Cl)c1)N(Cc1cccc(C(=O)O)c1)C(=O)c1cnc2ccccc2c1", 2.01]
]}

Look at this compound and give its reported log10 microsomal CLint. "C[C@H](c1ccc(F)cc1F)N(Cc1cccc(C(=O)O)c1)C(=O)c1cc2ccccc2cn1" 1.49

Item under review: "CC[C@H](c1ccc(F)cc1F)N(Cc1cccc(C(=O)O)c1)C(=O)c1cc2ccccn2n1" . Reported log10 microsomal CLint? 1.61

What value of measured log10 microsomal CLint is listed for "C[C@H](c1ccc(F)cc1F)N(Cc1cccc(C(=O)O)n1)C(=O)c1cc2ccccc2cn1" ? 1.49

Any idea what its log10 microsomal CLint is? The compound is "C[C@H](c1ccc(F)cc1)N(Cc1cccc(C(=O)O)c1)C(=O)c1cc2ccccn2n1" 2.51

Value lookup for log10 microsomal CLint; key = "C[C@H](c1ccc(F)cc1F)N(Cc1cccc(C(=O)O)c1)C(=O)c1cc2ccccn2n1" 1.93
